Give measured Relative potency for each item. Keep answers brief.
- test target: Mineralocorticoid receptor (Rattus norvegicus)
- assay protocol: Antialdosterone activity in rats administered orally compared to Spironolactone(100)
One number for each entry.

Study these solved cases before continuing.
CC(=O)S[C@@H]1CC2=CC(=O)C=C[C@]2(C)[C@H]2CC[C@@]3(C)[C@@H]([C@@H]4C[C@@H]4[C@@]34CCC(=O)O4)[C@H]12 (stereo in doubt)
333
CC(=O)S[C@@H]1CC2=CC(=O)CCC2(C)C2CCC3(C)C(C21)[C@@H]1C[C@@H]1[C@@]31CCC(=O)O1 (stereo partly specified)
186
CC(=O)S[C@@H]1CC2=CC(=O)CCC2(C)C2CCC3(C)C(C21)[C@H]1C[C@H]1[C@@]31CCC(=O)O1 (stereo partly specified)
282
CC(=O)S[C@@H]1CC2=CC(=O)[C@@H]3C[C@@H]3C2(C)C2CCC3(C)C(C21)[C@@H]1C[C@@H]1[C@@]31CCC(=O)O1 (stereo partly specified)
228
CC(=O)S[C@@H]1CC2=CC(=O)[C@@H]3C[C@@H]3C2(C)C2CCC3(C)C(C21)[C@H]1C[C@H]1[C@@]31CCC(=O)O1 (stereo partly specified)
281

Query block: Param item = CC(=O)S[C@@H]1CC2=CC(=O)C=C[C@]2(C)[C@H]2CC[C@@]3(C)[C@@H]([C@@H]4C[C@@H]4[C@@]34CCC(=O)O4)[C@H]12 (stereo in doubt; 14) ; retrieve measured Relative potency.
Result block: 115

Reference source for all entries: ChEMBL document CHEMBL1123807
